Hi, quick share: literature IC50 data for UniProt:Q12866, several sources combined.

Below are worked cases with known answers.
COMPOUND_STRING | OBSERVED_VALUE
NC(=O)c1ccccc1-c1cnc(N)c(C(=O)N[C@@H]2CCN(C(=O)c3ccc(-c4ccc(F)cc4Cl)cc3)C2)c1 | > 1000 nM
COC[C@H](C)Nc1ncc2c(C)ncc([C@H]3CC[C@H](O)CC3)c2n1 | ≤ 100 nM
Cc1cc(C(=O)N2CC[C@@H](NC(=O)c3cc(-c4cnn(C)c4)cnc3N)C2)c(N)c(-c2ccccc2)c1 | 100 to 1000 nM
COC[C@H](C)Nc1ncc2c(-c3cnn(C4COC4)c3)cc(-c3ccc(O)nc3)n2n1 | ≤ 100 nM
COC[C@H](C)Nc1ncc2c(-c3ccc(CN4CCOCC4)cc3)cc([C@H]3CC[C@H](O)CC3)n2n1 | ≤ 100 nM

Please state, for each entry, its recorded IC50.
1. CNC(=O)c1cc(-c2cc([C@H]3CC[C@H](O)CC3)n3nc(N[C@@H](C)CC(F)(F)F)ncc23)cc(C)n1
2. COC[C@H](C)Nc1cc2c(cn1)c(OC1CCOCC1)ncc2[C@H]1CC[C@H](O)CC1

["≤ 100 nM", "≤ 100 nM"]

----------
A compilation of published IC50 results with MERTK (Homo sapiens).

A selection of reference data follows.
COMPOUND_STRING | IC50
Nc1ncc(-c2cn[nH]c2)cc1-c1nnc(-c2cc(F)ccc2F)o1 | 1000 to 10000 nM
COC[C@H](C)Nc1ncc2c(-c3ccn(C)n3)cc([C@H]3CC[C@H](O)CC3)n2n1 | ≤ 100 nM
CN1CCN(Cc2cccc(-c3cccc(NC(=O)N4CC[C@@H](NC(=O)c5cc(-c6cnn(C)c6)cnc5N)C4)c3)c2)CC1 | > 1000 nM

We next turn to a different compound, shown below.
Look up IC50 with MERTK (Homo sapiens) for this compound: CC[C@H](C)Nc1ncc2c(=O)n(C3CCOCC3)cc([C@H]3CC[C@H](O)CC3)c2n1
≤ 100 nM

----------
pIC50: −log10 of the molar value.
A compilation of pIC50 values for MERTK (Homo sapiens, UniProt Q12866) from the published literature.

COMPOUND_STRING | OBSERVED_VALUE
Nc1ncc(-c2cnn(C3CCNCC3)c2)cc1-c1noc(-c2cc(Cl)ccc2Cl)n1 | 6.00 to 6.30
CC[C@H](C)Nc1ncc2c(OC3CC(C)(C)N(C)C(C)(C)C3)ncc([C@H]3CC[C@H](O)CC3)c2n1 | ≥ 7.00
CN(c1ccc(-c2ccc(C(=O)N3CC[C@@H](NC(=O)c4cc(-c5cnn(C)c5)cnc4N)C3)cc2)cc1)c1ccc(N)cc1F | 6.00 to 7.00

Here are 4 molecules. What values of pIC50 were reported for them?
1. C[C@@H](CC(F)(F)F)Nc1ncc2c(-c3ccnc([S@@](C)(=N)=O)c3)cc([C@H]3CC[C@H](O)CC3)n2n1
2. Cn1cc(-c2cnc(N)c(C(=O)N[C@@H]3CCN(C(=O)c4ccc(-c5ccccc5)cc4N)C3)c2)cn1
3. Cn1cc(C(=O)Nc2ccc(Oc3ncnc4cc(OCCCN5CCOCC5)c5c(c34)OCCO5)c(F)c2)c(=O)n(-c2ccc(F)cc2)c1=O
4. Cn1cc(-c2cnc(N)c(C(=O)N[C@@H]3CCN(C(=O)c4ccc(-c5ccc(O)cc5)cc4)C3)c2)cn1

1: ≥ 7.00; 2: 6.00 to 7.00; 3: ≥ 7.30; 4: 6.00 to 7.00
